Assay: soluble on expression in E. coli; label from the status in PepcDB or PDB records
VALUE_TYPE: soluble on expression in E. coli

| SEQUENCE_ENTRY | VALUE_TYPE | DATA_VALUE |
| --- | --- | --- |
| MEVKEMFSLGGGLGRSKVDESKVWDVIIIGAGPAGYTAAIYAARFGLDTIIITKDLGGNMAITDLIENYPGFPEGISGSELSKKMYDQVKKYGVEVIIDEVIRIDPAECAYYEGPCNFVVKTANGKEYKAKTIIIAVGAEPRKLNVPGEKEFTGRGVSYCATCDGPLFVGKEVIVVGGGNTALQEALYLHSIGVKVTLVHRRDKFRADKILQDRFKQAGIPAILNTVVTEIKGTNKVESVVLKNVKTGETVEKKVDGVFIFIGYEPKTDFVKHLGITDEYGYIPVDMYMRTKVPGIFAAGDITNVFKQIAVAVGQGAIAANSAKEFIESWNGKTIE | soluble on expression in E. coli | soluble |
| MPFIDLQSKLGINVDKWLLAQSGEQPRKRAAFCHAFEKEWIECSHAIGKTRASKECNIEWEDFYECMHRFKTMKRLKEISTQKEKMIKEGTYTPPPHHTGKGEPLS | soluble on expression in E. coli | not soluble |
| MGSDKIHHHHHHMGINKFNHEGYHDPTPHEALTNIMKKEKAEKKSAFKPLVYICSPYSGDVEGNIKKARSFCRFALDQNCIPIAPHLMFPQFMDDENPEERELAIFMDIVLMGKCSEVWVLGNTISTGMAREIEVAKKRRQTVRYFSPEHEEVESL | soluble on expression in E. coli | not soluble |
| MEDLIDGIIFAANYLGSTQLLSDKTPSKNVRMMQAQEAVSRIKMAQKLAKSRKKAPEGESQPMTEVDLFILTQRIKVLNADTQETMMDHPLRTISYIADIGNIVVLMARRRIPRSNSQENVEASHPSQDGKRQYKMICHVFESEDAQLIAQSIGQAFSVAYQEFLRANGINP | soluble on expression in E. coli | soluble |
| MRSRRVDVMDVMNRLILAMDLMNRDDALRVTGEVREYIDTVKIGYPLVLSEGMDIIAEFRKRFGCRIIADFKVADIPETNEKICRATFKAGADAIIVHGFRGADSVRACLNVAEEMGREVFLLTEMSHPGAEMFIQGAADEIARMGVDLGVKNYVGPSTRPERLSRLREIIGQDSFLISPGVGAQGGDPGETLRFADAIIVGRSIYLADNPAAAAAGIIESIKDLLNP | soluble on expression in E. coli | not soluble |
| MGSDKIHHHHHHMYTMFYTSKTALSANQSKLDIISNNIANSDSTGYKKINMEYSDLVDEVLNRPSYPTNGNDISTGTGAKATAPMRNYEQGALAPTDSKSNLAIDGEGFFRVIRKDGTYAYTRNGGFNVDALGKIVDDNGNILDVQFDAGYNYNNTNIDSTNLTVSRNGELFVDNKKIGKINLYQPIGTQNFISEGDSLFVATDAAQIKQVEKVDIVQGYRERSNVSLQEEFVDLIATQRAFQMNSKGIKTADEMWQIANNLRAK | soluble on expression in E. coli | not soluble |
| MTYCLGIVTQAGLIMAADSRTNAGIDYISTYQKLFDFSLPGDRTIVICCSGNLSITQAVLSQLRRDLAGHFDINLHSLPTMYDLARYLGQKVRQLQESDRDWLKQDGIDFYCNFLLGGQIRGGPIELYLVYGQGNCIHATPETPYLQIGETKYGKPILDRTISFDTSLDMAAKCALMSLDSTMRSNLSVGPPLNLARYERDSLVAPMLVQFPAGHEYLVEMRRRWEISLKDAFMRLPDIDWSRQLMRSLSPVSESVP | soluble on expression in E. coli | not soluble |
